# Protocol: Average particle size (ζ-Average) and PDI by dynamic light scattering (Zetasizer Nano ZSP)
# Format: physicochemical
# Condition Description: F7siRNA-loaded LNP, 50:10:38.5:1.5, N/P ratio 6
Readout Name: PDI
// no unit string in output, number only

Example entries and their recorded answers appear below.
### Prompt Record request: PDI value, item CCCCCCCCC(CCCCCC)C(=O)OCCCCCCC(O)(CCCCCCOC(=O)C(CCCCCC)CCCCCCCC)CCCCN(CCC)CCC (stereo not drawn)
### Response 0.014

### Prompt Record request: PDI value, item CCCCCCCCCC(CCCCCCCCC)C(=O)OCCCCCCC(O)(CCCCCCOC(=O)C(CCCCCCCCC)CCCCCCCCC)CCCCOC(=O)C1CCN(C)CC1 [CL15F 11-9]
### Response 0.029

### Prompt Record request: PDI value, item CCCCCCCCCCC(CCCCCCCCCC)C(=O)OCCCCCCC(O)(CCCCCCOC(=O)C(CCCCCCCCCC)CCCCCCCCCC)CCCCOC(=O)C1CCN(C)CC1 [CL15F 12-10]
### Response 0.014

### Prompt Record request: PDI value, item CCCCCCCCC(CCCCCCC)C(=O)OCCCCCCC(O)(CCCCCCOC(=O)C(CCCCCCC)CCCCCCCC)CCCCN(CCC)CCC (stereo not drawn)
### Response 0.013

### Prompt Record request: PDI value, item CCCCCCCC(CCCCC)C(=O)OCCCCCCC(O)(CCCCCCOC(=O)C(CCCCC)CCCCCCC)CCCCOC(=O)C1CCN(C)CC1 (stereo not drawn) [CL15F 9-5]
### Response 0.035

Continue with the compound presented below.
### Prompt Record request: PDI value, item CCCCCCCCC(CCCC)C(=O)OCCCCCCC(O)(CCCCCCOC(=O)C(CCCC)CCCCCCCC)CCCCOC(=O)C1CCN(C)CC1 (stereo not drawn) [CL15F 10-4]
### Response 0.021

====

Listed compounds paired with reported Fluc Activity in liver
# Test system: liver
# Protocol: In vivo Fluc activity of FlucmRNA-loaded LNP by in vivo imaging, liver
# Condition Description: Balb/c mice, FlucmRNA-loaded LNP i.v. 0.1 mg mRNA/kg, 6 hours
Please give a number only; it is taken to be in Avg Radiance [p/s/cm2/sr].

Example entries and their recorded answers appear below.
### Prompt Requested read-out Fluc Activity in liver, target or system liver, entry CCCCCCCC(CCCCC)C(=O)OCCCCCCC(O)(CCCCCCOC(=O)C(CCCCC)CCCCCCC)CCCCOC(=O)C1CCN(C)CC1 (stereo not drawn) [CL15F 9-5]
### Response 1.86E+06

### Prompt Requested read-out Fluc Activity in liver, target or system liver, entry CCCCCCCCCCC(CCCC)C(=O)OCCCCCCC(O)(CCCCCCOC(=O)C(CCCC)CCCCCCCCCC)CCCCOC(=O)C1CCN(C)CC1 (stereo not drawn) [CL15F 12-4]
### Response 2.87E+06

Continue with the compound presented below.
### Prompt Requested read-out Fluc Activity in liver, target or system liver, entry CCCCCCC(CCCCCC)C(=O)OCCCCCCC(O)(CCCCCCOC(=O)C(CCCCCC)CCCCCC)CCCCN(CCC)CCC
### Response 1.80E+08

====

# Protocol: Zeta potential in 10 mM HEPES buffer (pH 7.4)
# Type: physicochemical
# Condition Description: NlucmRNA-loaded LNP, 60:10:40:1
Readout Name: ζ-potential (mV)
Please give a number only; it is taken to be in mV.

### Prompt Record request: ζ-potential (mV) value, item CCCCCCCC/C=C\CCCCCCCC(=O)OCCCCCCC(O)(CCCCCCOC(=O)CCCCCCC/C=C\CCCCCCCC)CCCCOC(=O)C1CCN(C)CC1 [CL15H6, reference compound]
### Response 0.123

New cases:
### Prompt Record request: ζ-potential (mV) value, item CCCCCCCCC(CCCCCC)C(=O)OCCCCCCC(O)(CCCCCCOC(=O)C(CCCCCC)CCCCCCCC)CCCCOC(=O)C1CCN(C)CC1 (stereo not drawn) [CL15F6]
### Response −2.16

### Prompt Record request: ζ-potential (mV) value, item CC(CCC(C(=O)OCCCCCCC(O)(CCCCCCOC(=O)C(CCC(C)CC(C)(C)C)C(C)CC(C)(C)C)CCCCOC(=O)C1CCN(C)CC1)C(C)CC(C)(C)C)CC(C)(C)C (stereo not drawn) [CL15G6]
### Response 0.419

### Prompt Record request: ζ-potential (mV) value, item CCCCCCCCC(CCCCCC)C(=O)OCCCCCCC(O)(CCCCCCOC(=O)C(CCCCCC)CCCCCCCC)CCCCN(CCC)CCC (stereo not drawn) [CL4F6]
### Response −3.72

### Prompt Record request: ζ-potential (mV) value, item CCCCCCCC/C=C\CCCCCCCC(=O)OCCCCCCC(O)(CCCCCCOC(=O)CCCCCCC/C=C\CCCCCCCC)CCCCN(CCC)CCC [CL4H6, reference compound]
### Response −1.23

### Prompt Record request: ζ-potential (mV) value, item CCCN(CCC)CCCCC(O)(CCCCCCOC(=O)C(CCC(C)CC(C)(C)C)C(C)CC(C)(C)C)CCCCCCOC(=O)C(CCC(C)CC(C)(C)C)C(C)CC(C)(C)C (stereo not drawn) [CL4G6]
### Response −1.76

====

Listed molecules paired with reported % siRNA encapsulation
# Protocol: siRNA/mRNA encapsulation rate by Ribogreen reagent (section IV)
# Format: physicochemical
# Condition Description: F7siRNA-loaded LNP, 50:10:38.5:1.5, N/P ratio 6
Please give a number only; it is taken to be in %.

### Prompt Record request: % siRNA encapsulation value, item CCCCCCCCCCCCC(CC)C(=O)OCCCCCCC(O)(CCCCCCOC(=O)C(CC)CCCCCCCCCCCC)CCCCOC(=O)C1CCN(C)CC1 (stereo not shown) [CL15F 14-2]
### Response 100.2

New cases:
### Prompt Record request: % siRNA encapsulation value, item CCCCCCCC(CCCCCCC)C(=O)OCCCCCCC(O)(CCCCCCOC(=O)C(CCCCCCC)CCCCCCC)CCCCOC(=O)C1CCN(C)CC1 [CL15F 9-7]
### Response 100.3

### Prompt Record request: % siRNA encapsulation value, item CCCCCCCC(CCC)C(=O)OCCCCCCC(O)(CCCCCCOC(=O)C(CCC)CCCCCCC)CCCCN(CCC)CCC (stereo not shown)
### Response 99.9

### Prompt Record request: % siRNA encapsulation value, item CCCCCCCCC(CCCCC)C(=O)OCCCCCCC(O)(CCCCCCOC(=O)C(CCCCC)CCCCCCCC)CCCCN(CCC)CCC (stereo not shown)
### Response 100.1

====

# Protocol: Average particle size (ζ-Average) and PDI by dynamic light scattering (Zetasizer Nano ZSP)
# Format: physicochemical
# Condition Description: FlucmRNA-loaded LNP, 50:10:38.5:1.5
Response key: T means PDI >= 0.01; F means PDI < 0.01.

Past entries and their recorded results:
### Prompt Does CCCCCCCC(CCCC)C(=O)OCCCCCCC(O)(CCCCCCOC(=O)C(CCCC)CCCCCCC)CCCCN(CCC)CCC (stereo not shown) [CL4F 9-4] have a reported PDI of at least 0.01?
### Response F

### Prompt Does CCCCCCCCCCCC(CCC)C(=O)OCCCCCCC(O)(CCCCCCOC(=O)C(CCC)CCCCCCCCCCC)CCCCOC(=O)C1CCN(C)CC1 (stereo not shown) [CL15F 13-3] have a reported PDI of at least 0.01?
### Response T

### Prompt Does CCCCCCCCCCC(CCCCCCCCCC)C(=O)OCCCCCCC(O)(CCCCCCOC(=O)C(CCCCCCCCCC)CCCCCCCCCC)CCCCOC(=O)C1CCN(C)CC1 [CL15F 12-10] have a reported PDI of at least 0.01?
### Response T

### Prompt Does CCCCCCCCCCC(CCCCCC)C(=O)OCCCCCCC(O)(CCCCCCOC(=O)C(CCCCCC)CCCCCCCCCC)CCCCN(CCC)CCC (stereo not shown) [CL4F 12-6] have a reported PDI of at least 0.01?
### Response T

### Prompt Does CCCN(CCC)CCCCC(O)(CCCCCCOC(=O)C(CCC(C)CC(C)(C)C)C(C)CC(C)(C)C)CCCCCCOC(=O)C(CCC(C)CC(C)(C)C)C(C)CC(C)(C)C (stereo not shown) [CL4G6] have a reported PDI of at least 0.01?
### Response T

New cases:
### Prompt Does CCCCCC(CCCCC)C(=O)OCCCCCCC(O)(CCCCCCOC(=O)C(CCCCC)CCCCC)CCCCOC(=O)C1CCN(C)CC1 [CL15F 7-5] have a reported PDI of at least 0.01?
### Response F

### Prompt Does CCCCCCCCC(CCCCCCCC)C(=O)OCCCCCCC(O)(CCCCCCOC(=O)C(CCCCCCCC)CCCCCCCC)CCCCN(CCC)CCC [CL4F 10-8] have a reported PDI of at least 0.01?
### Response T

### Prompt Does CCCCCC(CCCC)C(=O)OCCCCCCC(O)(CCCCCCOC(=O)C(CCCC)CCCCC)CCCCN(CCC)CCC (stereo not shown) [CL4F 7-4] have a reported PDI of at least 0.01?
### Response T
